# ASSAY SUMMARY: Solubility of the peptide in water (Korean Pharmacopoeia method)
# Format: physicochemical
# TEST PARAMETERS: 20±5° C., within 30 minutes
Where a SMILES comes first, the peptide text is derived from it. [ ]: non-standard residue; d: D form. Hyp = O=C(O)[C@@H]1C[C@@H](O)CN1; Tle = CC(C)(C)[C@H](N)C(=O)O; Aib = CC(C)(N)C(=O)O
Measured solubility values are reported for all entries that follow.

| COMPOUND | RESULT VALUE |
| --- | --- |
| CC(C)C[C@H](NC(=O)[C@@H](NC(=O)[C@H](CCC(=O)O)NC(=O)[C@H](CCC(N)=O)NC(=O)CNC(=O)[C@@H]1C[C@@H](O)CN1)C(C)(C)C)C(=O)N[C@@H](C)C(=O)O [Example 44, Hyp-Gly-Gln-Glu-tert-Leu-Leu-Ala] (H-[Hyp]GQE[Tle]LA-OH; N-terminus and C-terminus assumed) | 100 mg/mL |
| CC(C)C[C@H](NC(=O)C(C)(C)NC(=O)[C@H](CCC(=O)O)NC(=O)[C@H](CCC(N)=O)NC(=O)CNC(=O)[C@@H]1C[C@@H](O)CN1)C(=O)N[C@@H](C)C(=O)O [Example 43, Hyp-Gly-Gln-Glu-Aib-Leu-Ala] (H-[Hyp]GQE[Aib]LA-OH; N-terminus and C-terminus assumed) | ≥ 500 mg/mL |

Turning now to a further record.
Sample CC(C)C[C@H](NC(=O)CNC(=O)[C@H](CCC(=O)O)NC(=O)[C@H](CCC(N)=O)NC(=O)CNC(=O)[C@@H]1C[C@@H](O)CN1)C(=O)N[C@@H](C)C(=O)O [Example 40, Hyp-Gly-Gln-Glu-Gly-Leu-Ala] (H-[Hyp]GQEGLA-OH; N-terminus and C-terminus assumed) — what was its solubility?
≥ 330 mg/mL

Source of measurements: patent US20260232753A1
